Target: hTMEM16A (abc) (Homo sapiens, UniProt Q5XXA6, DEL476-501)
Sequence (Q5XXA6 with tags, fused parts or gaps isoform Q5XXA6-5 DEL539-564): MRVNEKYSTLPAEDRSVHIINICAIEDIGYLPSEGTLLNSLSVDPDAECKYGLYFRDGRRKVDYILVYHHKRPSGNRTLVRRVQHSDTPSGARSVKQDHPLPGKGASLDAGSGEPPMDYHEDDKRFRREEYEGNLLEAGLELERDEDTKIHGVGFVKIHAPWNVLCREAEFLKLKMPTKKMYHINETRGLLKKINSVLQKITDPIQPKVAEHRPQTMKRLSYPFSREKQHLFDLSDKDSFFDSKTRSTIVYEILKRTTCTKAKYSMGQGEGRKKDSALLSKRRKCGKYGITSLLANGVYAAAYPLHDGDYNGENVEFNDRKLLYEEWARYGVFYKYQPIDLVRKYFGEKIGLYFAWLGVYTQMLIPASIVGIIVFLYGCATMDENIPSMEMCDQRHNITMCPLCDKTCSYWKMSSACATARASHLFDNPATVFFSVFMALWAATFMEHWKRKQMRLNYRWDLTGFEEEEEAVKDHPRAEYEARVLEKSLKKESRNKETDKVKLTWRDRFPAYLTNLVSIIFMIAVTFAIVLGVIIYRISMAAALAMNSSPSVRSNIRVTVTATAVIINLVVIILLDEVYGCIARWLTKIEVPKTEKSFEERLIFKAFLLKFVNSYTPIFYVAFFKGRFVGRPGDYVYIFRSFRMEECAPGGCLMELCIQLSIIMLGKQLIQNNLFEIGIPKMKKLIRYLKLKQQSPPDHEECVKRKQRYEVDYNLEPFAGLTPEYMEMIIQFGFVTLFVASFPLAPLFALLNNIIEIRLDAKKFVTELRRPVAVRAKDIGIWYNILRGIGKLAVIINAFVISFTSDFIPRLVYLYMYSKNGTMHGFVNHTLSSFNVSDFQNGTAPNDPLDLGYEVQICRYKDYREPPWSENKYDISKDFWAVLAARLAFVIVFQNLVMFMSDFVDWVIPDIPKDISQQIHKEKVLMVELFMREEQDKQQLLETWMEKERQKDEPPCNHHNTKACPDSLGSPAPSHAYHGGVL
Assay: medchem TMEM16A halide-sensitive YFP assay, 22-point dose-response
Assay type: cell-based
Design: expressed in transfected cells
Settings: up to 55.6 μM
Experimental: The TMEM16A HEK293T eYFP (H149Q, I153L) stable cell line for medchem support was generated by transfecting 10 μg of linearized hTMEM16A(abc) DNA constructs into HEK293T eYFP (H149Q,I153L) stable cells. […] YFP function assay were performed on duplicated plate and clones producing higher changes in fluorescence from the YFP assay were chosen for further expansion to form a stable cell line. […]
endpoint.label: scope of block of ionomycin-induced iodide eYFP quenching

[
  {
    "compound": "O=C(Nc1ccc(Cl)cc1)c1cc(Cl)ccc1O",
    "value": "only partially inhibited"
  },
  {
    "compound": "O=C(Nc1ncc([N+](=O)[O-])s1)c1ccccc1O [Tizoxanide]",
    "value": "partially inhibiting"
  },
  {
    "compound": "N#Cc1c(C(F)(F)F)cc(O)n2c1nc1ccccc12",
    "value": "only partial inhibition"
  },
  {
    "compound": "Oc1ccc(Cl)cc1Cc1cc(Cl)ccc1O",
    "value": "fully inhibited"
  },
  {
    "compound": "O=C(Nc1ccc([N+](=O)[O-])cc1)c1cc(Cl)ccc1O",
    "value": "only partially inhibited"
  },
  {
    "compound": "O=C(Nc1ccc([N+](=O)[O-])cc1Cl)c1cc(Cl)ccc1O [Niclosamide]",
    "value": "only partial inhibition"
  },
  {
    "compound": "COc1cc([N+](=O)[O-])ccc1NC(=O)c1cc(Cl)c2ccccc2c1O",
    "value": "only partial inhibition"
  },
  {
    "compound": "COc1cc(Nc2ccc([N+](=O)[O-])cc2C(=O)O)cc2ccccc12",
    "value": "fully inhibited"
  },
  {
    "compound": "CCc1oc2ccccc2c1C(=O)c1cc(Br)c(O)c(Br)c1",
    "value": "fully inhibited"
  },
  {
    "compound": "O=C(Nc1ccc([N+](=O)[O-])cc1)c1cc(Cl)c2ccccc2c1O",
    "value": "only partially inhibited"
  },
  {
    "compound": "CC(=O)Oc1ccccc1C(=O)Nc1ncc([N+](=O)[O-])s1 [Nitazoxanide]",
    "value": "partially inhibiting"
  }
]

---

target: hTMEM16A (abc) (Homo sapiens, UniProt Q5XXA6, DEL476-501); assay: medchem TMEM16A halide-sensitive YFP assay, 22-point dose-response; type: cell-based; parameters: expressed in transfected cells; conditions: average, 22-point dose-response, iodide as permeant anion; read-out: TMEM16A eYFP Assay (IC50)
endpoint.label: IC50

[
  {
    "mol.smiles": "COc1cc(Nc2ccc([N+](=O)[O-])cc2C(=O)O)cc2ccccc12",
    "subject.of.test": "hTMEM16A (abc) (Homo sapiens, UniProt Q5XXA6, DEL476-501)",
    "value": "6.29 µM"
  },
  {
    "mol.smiles": "O=C(Nc1ccc(Cl)cc1)c1cc(Cl)ccc1O",
    "subject.of.test": "hTMEM16A (abc) (Homo sapiens, UniProt Q5XXA6, DEL476-501)",
    "value": "0.37 µM"
  },
  {
    "mol.smiles": "CCc1c(C)nc(SCC(=O)Nc2nc(-c3ccc(OC)cc3)cs2)[nH]c1=O",
    "subject.of.test": "hTMEM16A (abc) (Homo sapiens, UniProt Q5XXA6, DEL476-501)",
    "value": "> 50 µM"
  },
  {
    "mol.smiles": "N#Cc1c(C(F)(F)F)cc(O)n2c1nc1ccccc12",
    "subject.of.test": "hTMEM16A (abc) (Homo sapiens, UniProt Q5XXA6, DEL476-501)",
    "value": "1.52 µM"
  },
  {
    "mol.smiles": "Oc1ccc(Cl)cc1Cc1cc(Cl)ccc1O",
    "subject.of.test": "hTMEM16A (abc) (Homo sapiens, UniProt Q5XXA6, DEL476-501)",
    "value": "4.37 µM"
  }
]

// data source = paper PMC6382696
